target under test: HIV-1 Env of isolate MGRM-F1-012 (subtype F) (HIV-1)
measurement notes: cell-based or functional assay
recorded metric: IC50 (neutralization)

>>> obs_value("PGT-130 (antibody, V domains shown) VH: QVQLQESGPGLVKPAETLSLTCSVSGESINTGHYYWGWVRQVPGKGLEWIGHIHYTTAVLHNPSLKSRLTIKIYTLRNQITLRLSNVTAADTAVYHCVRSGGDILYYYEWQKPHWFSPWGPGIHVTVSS VL: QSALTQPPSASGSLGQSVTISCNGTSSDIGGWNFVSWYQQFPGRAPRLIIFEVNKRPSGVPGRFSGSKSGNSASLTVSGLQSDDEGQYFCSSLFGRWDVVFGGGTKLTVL")
"> 50 µg/mL"
>>> obs_value("PGT-128 (antibody, V domains shown) VH: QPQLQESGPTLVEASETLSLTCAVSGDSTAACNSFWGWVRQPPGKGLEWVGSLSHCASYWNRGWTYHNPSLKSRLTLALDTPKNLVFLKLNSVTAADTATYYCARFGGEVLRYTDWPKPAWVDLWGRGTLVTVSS VL: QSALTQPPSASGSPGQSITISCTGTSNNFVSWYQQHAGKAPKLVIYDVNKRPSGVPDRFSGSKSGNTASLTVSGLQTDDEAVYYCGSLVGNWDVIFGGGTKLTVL")
"0.007 µg/mL"
>>> obs_value("PGT-127 (antibody, V domains shown) VH: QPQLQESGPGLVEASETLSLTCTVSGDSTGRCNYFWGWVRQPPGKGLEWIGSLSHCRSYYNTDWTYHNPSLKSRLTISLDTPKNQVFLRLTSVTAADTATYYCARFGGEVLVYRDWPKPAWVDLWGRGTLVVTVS VL: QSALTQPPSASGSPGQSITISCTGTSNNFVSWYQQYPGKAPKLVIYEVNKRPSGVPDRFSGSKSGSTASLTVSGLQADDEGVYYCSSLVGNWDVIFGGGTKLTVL")
"> 50 µg/mL"
>>> obs_value("PGT-137 (antibody, V domains shown) VH: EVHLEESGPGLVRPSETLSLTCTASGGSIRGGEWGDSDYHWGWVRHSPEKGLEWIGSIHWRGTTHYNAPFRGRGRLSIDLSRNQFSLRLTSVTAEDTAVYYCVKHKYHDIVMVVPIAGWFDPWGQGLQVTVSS VL: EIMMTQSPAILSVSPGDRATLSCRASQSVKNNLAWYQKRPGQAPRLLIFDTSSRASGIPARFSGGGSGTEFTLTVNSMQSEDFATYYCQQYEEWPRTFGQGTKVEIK")
"> 50 µg/mL"
>>> obs_value("PGT-126 (antibody, V domains shown) VH: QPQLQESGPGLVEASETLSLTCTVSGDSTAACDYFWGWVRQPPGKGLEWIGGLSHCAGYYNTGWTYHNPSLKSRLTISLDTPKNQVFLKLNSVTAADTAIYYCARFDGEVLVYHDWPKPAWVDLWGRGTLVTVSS VL: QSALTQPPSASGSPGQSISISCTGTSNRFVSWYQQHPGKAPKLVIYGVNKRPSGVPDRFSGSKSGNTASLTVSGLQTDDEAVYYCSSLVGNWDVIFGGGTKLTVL")
"0.3 µg/mL"
